- Tested target: PTHR-delNt (human) (UniProt Q03431)
- Sequence (Q03431 185-593, form in doubt): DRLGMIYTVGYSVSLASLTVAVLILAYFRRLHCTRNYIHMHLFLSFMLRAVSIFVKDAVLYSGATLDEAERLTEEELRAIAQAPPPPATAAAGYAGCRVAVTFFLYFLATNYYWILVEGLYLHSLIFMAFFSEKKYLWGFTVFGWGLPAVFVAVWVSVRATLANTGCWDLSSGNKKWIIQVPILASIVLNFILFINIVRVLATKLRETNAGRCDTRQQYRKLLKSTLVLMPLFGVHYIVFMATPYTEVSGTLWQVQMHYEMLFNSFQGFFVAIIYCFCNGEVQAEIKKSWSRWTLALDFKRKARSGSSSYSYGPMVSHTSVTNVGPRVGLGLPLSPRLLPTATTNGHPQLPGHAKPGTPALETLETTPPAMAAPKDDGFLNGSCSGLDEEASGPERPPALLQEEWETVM
- Experiment: competition binding, COS-7 membranes, 125I-[Aib1,3,M]PTH(1-15) tracer
pIC50: −log10 of the molar value. Where no end group is shown, it is not given here. [ ]: non-standard residue; d: D form. Cha = N[C@@H](CC1CCCCC1)C(=O)O
Property label: pIC50

{"columns": ["Binder", "Reported result"],
 "data": [
  ["AVSEIQLMHNLGKHLNSMRRVEWLRKELQDV-NH2 [[Ala^1,Arg^19]hPTH(1-31)NH2 Lys^27→Glu]", 5.90],
  ["SVSEIQLMHNLGKHLNSMERVEWLRKKLQAV-NH2 [PTH(1-31)NH2 Asp^30→Ala]", 5.81],
  ["SVSEIQLMHNLGKHLNSAERVEWLRKKLQDV-NH2 [PTH(1-31)NH2 Met^18→Ala]", 5.06],
  ["AVSEIQLMHNLGKHLNSMRRVEWLEKKLQDV-NH2 [[Ala^1,Arg^19]hPTH(1-31)NH2 Arg^25→Glu]", 5.79],
  ["AVSEIQLMHNLGKHLNSMRRVEWL[Cha]KKLQDV-NH2 [[Ala^1,Arg^19]hPTH(1-31)NH2 Arg^25→Cha]", 5.57],
  ["AVSEIQLMHNLGKHLNSMERVEWLRKKLQDV-NH2 [[Ala^1,Arg^19]hPTH(1-31)NH2 Arg^19→Glu]", 4.72]
]}
